- EXPERIMENTAL TARGET: T1, sIL-6R (soluble IL-6 receptor; SBH Sciences) (human, UniProt P08887 20-365)
- T1 construct: also called human IL-6R
- T1 sequence: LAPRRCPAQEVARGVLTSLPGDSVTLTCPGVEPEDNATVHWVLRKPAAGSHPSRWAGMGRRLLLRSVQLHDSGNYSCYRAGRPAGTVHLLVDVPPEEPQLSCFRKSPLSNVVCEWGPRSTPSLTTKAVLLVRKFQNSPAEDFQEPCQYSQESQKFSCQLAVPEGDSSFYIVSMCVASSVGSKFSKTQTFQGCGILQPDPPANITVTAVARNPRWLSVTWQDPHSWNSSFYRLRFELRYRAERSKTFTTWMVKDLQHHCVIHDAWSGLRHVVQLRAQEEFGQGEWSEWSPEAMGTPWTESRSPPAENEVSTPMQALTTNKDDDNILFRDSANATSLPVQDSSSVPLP
- PROTOCOL: SPR (BIAcore 3000), antibody on chip, sIL-6R analyte, 25 C
Assign pKd to each entry below.
Here pKd is given on a logarithmic scale as minus log10 of the concentration in mol/L.

The recorded pKd for entry 17# (antibody, human IgG1, kappa, V domains shown, also called Sample # 17) VH: QVQLQESGPGLVRPSQTLSLTCTVSGYSITSDHAWSWVRQPPGRGLEWIGFISYSGITTYNPSLKSRVTMLRDTSKNQFSLRLSSVTAADTAVYYCARCLARTTAMDYWGQGSLVTVSS VL: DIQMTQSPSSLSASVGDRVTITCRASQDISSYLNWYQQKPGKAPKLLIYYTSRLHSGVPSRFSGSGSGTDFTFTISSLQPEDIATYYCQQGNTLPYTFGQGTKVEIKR equals 9.52

The recorded pKd for entry 15# (antibody, human IgG1, kappa, V domains shown, also called Sample # 15) VH: QVQLQESGPGLVRPSQTLSLTCTVSGYSITSDHAWSWVRQPPGRGLEWIGFISYSGITTYNPSLKSRVTMLRDTSKNQFSLRLSSVTAADTAVYYCARCLARITAMDYWGQGSLVTVSS VL: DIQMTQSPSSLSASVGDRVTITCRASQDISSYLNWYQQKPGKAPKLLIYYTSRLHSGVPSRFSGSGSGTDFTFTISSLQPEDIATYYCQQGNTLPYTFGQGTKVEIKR equals 9.84

The recorded pKd for entry 27# (antibody, human IgG1, kappa, V domains shown, also called Sample # 27) VH: QVQLQESGPGLVRPSQTLSLTCTVSGYSITSDHAWSWVRQPPGRGLEWIGFISYSGMTTYNPSLKSRVTMLRDTSKNQFSLRLSSVTAADTAVYYCARSLARATAMDYWGQGSLVTVSS VL: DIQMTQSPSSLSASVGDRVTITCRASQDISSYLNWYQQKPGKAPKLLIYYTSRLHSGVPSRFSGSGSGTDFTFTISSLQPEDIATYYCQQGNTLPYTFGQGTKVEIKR equals 9.99

The recorded pKd for entry 11# (antibody, human IgG1, kappa, V domains shown, also called Sample # 11) VH: QVQLQESGPGLVRPSQTLSLTCTVSGYSITSDHAWSWVRQPPGRGLEWIGFISYSGITTYNPSLKSRVTMLRDTSKNQFSLRLSSVTAADTAVYYCARSLARATAMDYWGQGSLVTVSS VL: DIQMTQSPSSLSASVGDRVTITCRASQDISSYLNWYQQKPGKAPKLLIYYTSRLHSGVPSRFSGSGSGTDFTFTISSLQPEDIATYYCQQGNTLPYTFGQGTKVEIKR equals 10.06

The recorded pKd for entry 7# (antibody, human IgG1, kappa, V domains shown, also called Sample # 7) VH: QVQLQESGPGLVRPSQTLSLTCTVSGYSITSDHAWSWVRQPPGRGLEWIGYISYSGITTYNPSLKSRVTMLRDTSKNQFSLRLSSVTAADTAVYYCARSLARTTAIDYWGQGSLVTVSS VL: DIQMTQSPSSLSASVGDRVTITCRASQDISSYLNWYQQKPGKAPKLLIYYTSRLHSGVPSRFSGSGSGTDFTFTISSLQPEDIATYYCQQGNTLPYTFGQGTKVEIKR equals 9.12
